Measured values drawn from the supplement of paper PMC10126150 for this set.

Test system: ATP;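 also: ATP exposure 15 min at 22 °C before imaging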
protocol-summary: switch fluorescence ratio, 500 uM ATP over buffer (Cy3 cluster intensity, sum of 5 cycles each) (fold (ratio)); higher = stronger signal-on switching upon ATP binding; sequences stand for … in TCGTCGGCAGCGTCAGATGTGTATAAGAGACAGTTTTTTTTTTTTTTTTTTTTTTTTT…TC
condition-details: aptamer strand: ATP DNA aptamer (quencher-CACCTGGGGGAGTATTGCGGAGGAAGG + anchor), 100 nM annealed; ATP concentration: 500 uM
quantity-kind: switch fluorescence ratio

CTGTGGAAAG = 0.991
AGTCAGGGGG = 1
GGACGTTGAG = 0.985
ACAGGGAGTA = 0.986
TTTCAGGGAA = 0.99
TCCAAATTAC = 2.08
GGGAAAAGA = 1.04
TGGCCCGGGC = 1.02
TCGGGTCGCG = 0.995
GGGGCTATAA = 1.11
AGAGCAGTGT = 1.01
ACAGCGCGAC = 1.32
CAAAGTTTCG = 1.04
ATTAAAGCGT = 1
AGTTTTGATG = 0.978
TTTCCCAAAA = 1.04
ACCGGTGCTG = 0.98
CGATTGCTAG = 1.02
CGACATTGAG = 0.967
GACGCACTGG = 1.85
GTTTCTTTTA = 0.99
GCCGTAATTA = 1.09
AAGAGGGGAG = 1.01
TTTTACGGAT = 1.01
AAAAAAAAGA = 0.996
ATATGAGTGC = 0.951
GGGAATATTA = 1.04
CCTAGATAAC = 1.16
TAAAAAAATA = 0.971
TATTTTACAG = 1.02
TTATAATTTG = 1.02
GACTTGACTG = 1.11
CCCAGTATGG = 1
CACAAGCGAT = 1.42
GATAGAATGA = 1.01
TGAAGGATAC = 1.28
AGTGCTTGAG = 0.977
GATGCTACTG = 1.04
CCATTTTTTG = 0.993
GGGGGCAACG = 1.03
TTTAGACGGT = 1.02
TCACGTTCTG = 1.03
ATTGGGAAAG = 1.02
ACCATTCAAA = 1
ATGGGAGGGA = 1.01
GTAATGAGCG = 0.998
CCTGAGGGTT = 0.985
TAAAATCCGT = 0.981
TTTATAGTCT = 0.99
GTTCAAAGGT = 0.96
TTTTTTGGTG = 1.02
TTGTTTTATA = 0.973
TTTTAGAGT = 0.988
AAATCGATGT = 1
TCGAAGGAAT = 1.24
TTTAGGCTTT = 1
AGGGCTTTTA = 1
CGTTTTTCTG = 0.968
GTTTTGTTGT = 0.99
ACAAGGCCTT = 0.993
ACGTAATTGG = 1.21
TCGGTCGCGG = 0.974
GTGTTTGTTC = 0.968
ACCTCGAAGA = 1.03
GCTGGTTGAC = 0.981
CGCGGGTAAC = 1.04
ATTATGGGGA = 0.995
GATGTTAAGA = 0.998
GTATGTCGTT = 0.968
GTATGTCGAG = 0.988
ATGAGGGTTG = 1.04
AGGTGTTATG = 1.03
ATAATTTAGT = 0.982
TTGAGTCCGT = 1.05
TTTGAGCAGA = 0.97
GTATGGGCGT = 1.03
CCTCTGGGAT = 2.24
ATCTGTATGT = 0.968
GCTGGTACTG = 0.986
TGGTAAAAAG = 1.02
AGGGTCGCGT = 0.989
TAGTCTAGGT = 1.02
GGCAGAGCTG = 1.02
TAGAAAATGG = 1
CGAAGGCGTG = 1
GTTCACGTAA = 1.16

* * *

System: ATP;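 also: ATP exposure 15 min at 22 °C before imaging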
protocol-summary: switch fluorescence ratio, 500 uM ATP over buffer (Cy3 cluster intensity, sum of 5 cycles each) (fold (ratio)); higher = stronger signal-on switching upon ATP binding; sequences stand for … in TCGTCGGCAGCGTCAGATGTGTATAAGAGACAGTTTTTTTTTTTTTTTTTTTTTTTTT…TC
condition-details: aptamer strand: ATP DNA aptamer (quencher-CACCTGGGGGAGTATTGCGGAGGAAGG + anchor), 100 nM annealed; ATP concentration: 500 uM
quantity-kind: switch fluorescence ratio

CAGCTTGGAT = 0.977
AAGTGAGGGT = 0.996
TCAGGCAGGC = 0.936
CTTTGTCAGT = 0.979
TCAACGGTCT = 0.995
GTCGTTTGCG = 1.01
ATGGTGAGGC = 0.95
GTTGGAGATT = 0.961
AAGATTGTAA = 0.996
TGGGGTAGAG = 0.97

* * *

switch fluorescence ratio values, listed per item
Tested on: ATP;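 also: ATP exposure 15 min at 22 °C before imaging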
protocol-summary: switch fluorescence ratio, 500 uM ATP over buffer (Cy3 cluster intensity, sum of 5 cycles each) (fold (ratio)); higher = stronger signal-on switching upon ATP binding; sequences stand for … in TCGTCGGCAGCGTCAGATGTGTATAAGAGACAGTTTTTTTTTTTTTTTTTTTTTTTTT…TC
condition-details: aptamer strand: ATP DNA aptamer (quencher-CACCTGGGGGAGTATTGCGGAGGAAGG + anchor), 100 nM annealed; ATP concentration: 500 uM
quantity-kind: switch fluorescence ratio

TTCCTGGGGA = 0.994
GGAATAGGGG = 0.991
CGGGAGAAAG = 1
ATGATATTTC = 0.961
TCATGCGGTG = 0.967
ATTAGTCAAT = 1.02
GTCAAAGCCA = 1.02
CGCAGAGGCT = 1.06
TAGTGTTTGG = 1.02
CTGGGCACAT = 1.05
TCACTAAAAA = 0.979
TTTTTGCAAT = 1.43
TAATTTGAAT = 1.03
TGGAGCCTGG = 0.984
GGAACGGGGG = 1.02
CCAGGCTATT = 1.04
ATTGGTATGA = 0.994
TGTTTGGGCC = 1.03
TGCTGAAAAC = 0.974
TTACATATCT = 1.03
CAAGTAGTGG = 1.03
ATATATTGTA = 1
TATGGGCAGG = 1.04
GCTGCAGGGT = 0.992
TCGGGATAGC = 1.08
CGGTGAAGGG = 0.994
CAGGGGCGAC = 1.02
GTTTGTTTAG = 1.01
ACGGGTAAAT = 1.01
CCGAGTTAGG = 1.07
CAGTGGCGTC = 1.05
GGGCAAGTCA = 1.02
GATGTGGTGA = 0.993
ATAAGGGCGT = 1
GGGATCTTGA = 1.07
CCTTTGGTTT = 0.982
GGGATGGTTT = 0.988
AGTTACAGTC = 1.05
GTGACTATGG = 0.963
ATGGGTGTTG = 0.992
CGGTTGGCAA = 1.09
TAAGCTCTGT = 0.984
TGGGGAGTGT = 0.985
ATTAAAGGGC = 0.992
TTTTGGCCAG = 0.991
TAGTTATGTT = 0.964
AAATAACTGA = 0.994
AAAAGGGGCA = 1.04
AGTTTCTTTT = 0.994
GCTGGTACAG = 1
AGAGGTTTTG = 1.01
GCTGGGCCGA = 1.01
GTGAGGGTGA = 1
TATAAAGGGC = 1.01
GAGTTCCCGA = 0.977
TTGAATAAAA = 1.01
AGGATGTTAT = 1
TGGATTATGA = 0.955
ACCGGGGATT = 1
TTTTATGGCG = 1.04
TATTTGAAAG = 1
ACCGTGTATG = 1.01
GAGGAACGTG = 0.967
TCAGAGAAGA = 0.962
TTTTCGTTTC = 1.01
AAGCAGACGG = 1.05
ACCTGGTCGT = 1.05
ATGGCGGCGG = 1.01
CGGAAGTGCG = 1.01
GTGTAATAGT = 0.996
TCGTCAAATT = 0.991
ATGTTTTTTT = 0.992
CGTGGGGGGC = 1.01
AGGTTTTGTT = 0.964
TGGGATGGGT = 1.02
GGAGAGGGTT = 1.02
TCATTTGTGC = 1.01
CCATCAAGTG = 1.11
CTGGGGATTT = 1.02
GAAAACGAAT = 1.07
TTTTGGTCTG = 1.01
GACTGTTATG = 0.989
TGATTTGGGA = 0.971
ATTGAGTTGT = 0.947
CTGTGTGCCT = 0.995
TATATTTTGT = 1.02
